Target: UniProtKB P25090
Sequence (P25090 whole entry): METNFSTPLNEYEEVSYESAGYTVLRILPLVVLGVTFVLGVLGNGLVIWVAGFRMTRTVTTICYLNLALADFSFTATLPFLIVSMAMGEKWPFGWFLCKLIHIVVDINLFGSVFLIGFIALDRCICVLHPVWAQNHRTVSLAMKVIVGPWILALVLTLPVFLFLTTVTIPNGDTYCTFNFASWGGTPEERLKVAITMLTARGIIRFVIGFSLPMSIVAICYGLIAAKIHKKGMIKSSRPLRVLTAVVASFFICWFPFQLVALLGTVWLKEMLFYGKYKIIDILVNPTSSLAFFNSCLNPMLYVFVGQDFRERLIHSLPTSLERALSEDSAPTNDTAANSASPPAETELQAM
Assay: FPR2 and FPR1 Cyclic Adenosine Monophosphate (cAMP) Assays
Recorded Metric: EC50 (nM)

INSERT INTO assay_data (molecule, recorded_metric, recorded_measurement) VALUES
  ('COc1cc(F)c([C@@H]2CN(c3c(C)ccn(C4CCS(=O)(=O)CC4)c3=O)C(=O)[C@H]2NC(=O)c2ccc(Cl)cc2)c(F)c1', 'EC50', 1.9);

I = COc1cc(F)c([C@@H]2CN(c3nc(N4CC(CO)OCC4=O)ccc3F)C(=O)[C@H]2NC(=O)c2ccc(OC(F)F)cc2)c(F)c1 (stereo partly drawn)
II = COc1cc(F)c([C@@H]2CN(c3nc(N4CCCS4(=O)=O)ccc3F)C(=O)[C@H]2NC(=O)c2ccc(OC(F)(F)F)cc2)c(F)c1
Prompt: Of I versus II , which is the one with smaller reported EC50? Kindly state the label of the option you pick.
Response: II
(II: 8.6 nM, I: 13 nM)

---

Molecular target: UniProt:P21462
Sequence (P21462 whole entry): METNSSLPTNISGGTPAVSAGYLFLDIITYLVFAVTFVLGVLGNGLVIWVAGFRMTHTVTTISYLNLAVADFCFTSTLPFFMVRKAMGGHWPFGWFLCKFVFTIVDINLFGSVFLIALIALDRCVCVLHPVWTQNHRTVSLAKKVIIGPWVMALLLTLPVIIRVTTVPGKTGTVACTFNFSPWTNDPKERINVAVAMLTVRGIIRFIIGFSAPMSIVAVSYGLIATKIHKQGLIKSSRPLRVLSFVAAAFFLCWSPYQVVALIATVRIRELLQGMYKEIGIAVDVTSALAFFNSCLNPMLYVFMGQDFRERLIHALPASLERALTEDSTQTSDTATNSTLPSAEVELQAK
Assay: FPR2 and FPR1 Cyclic Adenosine Monophosphate (cAMP) Assays
pEC50: −log10 of the molar value.
Recorded Metric: pEC50

INSERT INTO measurements (molecule, target_or_system, recorded_measurement) VALUES
  ('COc1cc(F)c([C@@H]2CN(c3c(C)ccn(C4CCS(=O)(=O)CC4)c3=O)C(=O)[C@H]2NC(=O)c2ccc(Cl)cc2)c(F)c1', 'UniProt:P21462', 7.92);

I = COc1cc(F)c([C@@H]2CN(c3c(C)ccn(C4CCN(C)C4)c3=O)C(=O)[C@H]2NC(=O)c2ccc(Cl)cc2)c(F)c1 (stereo partly specified)
II = COc1cc(F)c([C@@H]2CN(c3nc(N4CC(CO)OCC4=O)ccc3F)C(=O)[C@H]2NC(=O)c2ccc(OC(F)F)cc2)c(F)c1 (stereo partly specified)
III = COc1cc(F)c([C@@H]2CN(c3c(C)ccn(CC(O)C4CC4)c3=O)C(=O)[C@H]2NC(=O)c2ccc(Cl)cc2)c(F)c1 (stereo partly specified)
IV = COc1cc(F)c([C@@H]2CN(c3nc(N4CCCS4(=O)=O)ccc3F)C(=O)[C@H]2NC(=O)c2ccc(OC(F)(F)F)cc2)c(F)c1
Prompt: Could you please order the items by pEC50, going from the lowest number to the highest? Returns: the labels listed in the requested order.
Response: II, I, IV, III
(II: 5.25, I: 6.54, IV: 7.21, III: 8.30)
